# Test system: pseudovirus carrying spike protein of the delta variant
# EXPERIMENT SUMMARY: microbe, parasite or virus in culture
# Type: cell-based, SARS-CoV-2
# STATED CONDITIONS: read-out: EC50 (nM) (Delta)
MEASURED PARAMETER: EC50 (nM)
Number in nM, nothing else.

>  <MOLECULE>
C[C@@H]1CCO[C@H]2Cn3cc(C(=O)NCc4ccc(F)cc4F)c(=O)c(O)c3C(=O)N12 [Dolutegravir sodium]

>  <EC50, nM>
3

$$$$

Could you now consider this next molecule?
# EC50 lookup, item Cc1cc(C#N)cc(C)c1Oc1nc(Nc2ccc(C#N)cc2)nc(N)c1Br 2.9

Values compiled from paper PMC8999638.
